assayed-target: human mineralocorticoid receptor (MR) (Homo sapiens, UniProt P08235)
Sequence (P08235 734-984 limits assumed): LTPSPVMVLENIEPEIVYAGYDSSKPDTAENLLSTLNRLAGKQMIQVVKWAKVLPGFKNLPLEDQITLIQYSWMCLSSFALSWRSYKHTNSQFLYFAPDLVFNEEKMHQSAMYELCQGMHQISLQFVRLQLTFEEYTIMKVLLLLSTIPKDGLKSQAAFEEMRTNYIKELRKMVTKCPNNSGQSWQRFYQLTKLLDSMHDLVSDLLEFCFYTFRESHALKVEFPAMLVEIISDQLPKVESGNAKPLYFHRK
test-description: Cellular in vitro assay, GAL4-MR chimera luciferase reporter in CHO K1 cells (inhibitory MR activity)
condition-context: antagonism vs aldosterone; CHO K1 GAL4-MR LBD luciferase reporter
Listing: log10 of IC50 of selected compounds
outcome-measure: log10 of IC50 (log10 of the value in µM)

[[record]]
compound = "CCC(CCO)(c1ccc(Cl)cc1)c1c[nH]c2c(C[S+](C)[O-])cccc12 (mixture of isomers)"
observed_measurement = -0.85

[[record]]
compound = "CSCc1cc(F)cc2c(C(c3ccc(C)cc3)C3CC3C#N)c[nH]c12 (stereo not shown)"
observed_measurement = -1.41

[[record]]
compound = "CS(=O)(=O)Cc1cccc2c(C(c3ccc(F)cc3)c3ccc(Cl)cc3)c[nH]c12 (single isomer, unassigned)"
observed_measurement = -0.66

[[record]]
compound = "CSCc1cc(F)cc2c(C(CCC#N)c3ccc(Cl)cc3)c[nH]c12 (stereo not shown)"
observed_measurement = -1.11

[[record]]
compound = "CS(=O)(=O)Cc1cccc2c(C(c3ccc(Cl)cc3)C3CC3)c[nH]c12 (stereo not shown)"
observed_measurement = -1.16

[[record]]
compound = "CS(=O)(=O)Cc1cccc2c(C3(C4CC4)CCOc4cc(F)cc(F)c43)c[nH]c12 (stereo not shown)"
observed_measurement = -1.38

[[record]]
compound = "CS(=O)(=O)Cc1cccc2c(C3(C4CC4)CCc4cc(F)ccc43)c[nH]c12 (single isomer, unassigned) [Example 107-1]"
observed_measurement = -1.70


====

assayed-target: human mineralocorticoid receptor (MR) (Homo sapiens, UniProt P08235)
test-description: Cellular in vitro assay, GAL4-MR chimera luciferase reporter in CHO K1 cells (inhibitory MR activity)
condition-context: antagonism vs aldosterone; CHO K1 GAL4-MR LBD luciferase reporter
Class key for IC50 values: one: < 50 nM; two: ≥ 50 nM and < 200 nM; three: ≥ 200 nM

[[record]]
molecule = "C[S+]([O-])Cc1cc(F)cc2c(C(CCC#N)c3ccc(Cl)cc3Cl)c[nH]c12 (mixture of isomers)"
classification = "three"

[[record]]
molecule = "CS(=O)(=O)Cc1cccc2c(C(c3ccc(Cl)cc3Cl)C3CC3(F)F)c[nH]c12 (single isomer, unassigned) [Example 325-1-1]"
classification = "one"

[[record]]
molecule = "C[S+]([O-])Cc1cccc2c(C(c3ccc(Cl)cc3)c3ccc(Cl)cc3)c[nH]c12 (racemic)"
classification = "three"

[[record]]
molecule = "CS(=O)(=O)Cc1cc(F)cc2c(C(c3ccc(F)cc3Cl)C3CC3C#N)c[nH]c12 (single isomer, unassigned)"
classification = "one"

[[record]]
molecule = "CS(=O)(=O)Cc1cccc2c(C(c3ccc(C(F)(F)F)cc3Cl)C3CC3)c[nH]c12 (stereo not drawn)"
classification = "two"

[[record]]
molecule = "CCC(CCC#N)(c1ccc(Cl)cc1)c1c[nH]c2c(CS(C)(=O)=O)cccc12 (stereo not drawn) [Example 172]"
classification = "one"

[[record]]
molecule = "Cc1ccc(C(CCC#N)c2c[nH]c3c(CS(C)(=O)=O)cccc23)cc1 (stereo not drawn)"
classification = "three"

[[record]]
molecule = "CS(=O)(=O)Cc1cccc2c(C(c3ccc(F)cc3F)C3CC3)c[nH]c12 (stereo not drawn)"
classification = "three"

[[record]]
molecule = "CS(=O)(=O)Cc1cccc2c(C(CCC#N)c3ccc(C(F)(F)F)cc3)c[nH]c12 (single isomer, unassigned)"
classification = "two"

[[record]]
molecule = "CC(c1ccc(Cl)cc1F)(c1c[nH]c2c(CS(C)(=O)=O)cccc12)C1CC1 (single isomer, unassigned)"
classification = "one"

[[record]]
molecule = "CCC(CCO)(c1ccc(Cl)cc1)c1c[nH]c2c(CSC)cccc12 (stereo not drawn)"
classification = "three"

[[record]]
molecule = "CSCc1cccc2c(C(C)(c3ccc(C(F)(F)F)cc3)C3CC3C#N)c[nH]c12 (stereo not drawn)"
classification = "two"

[[record]]
molecule = "CSCc1cccc2c(C(c3ccc(F)cc3)c3ccc(Cl)cc3)c[nH]c12 (stereo not drawn)"
classification = "three"

[[record]]
molecule = "CS(=O)(=O)Cc1cccc2c(C(CCC#N)c3ccc4ccccc4c3)c[nH]c12 (stereo not drawn)"
classification = "three"

